Values were extracted from PubChem BioAssay.

Assay: viability loss with induced miR-34 in A549 – imaging, A549 dox-inducible miR-34, nuclei and caspase counts, primary screen (AID 1347080); note: test concentration not given here
Conditions: A549 miR-34 inducible, Hoechst nuclei count, 48 h; measured here: relative caspase fold change +Dox/-Dox
READOUT_KIND: fold change
Enter the number alone.

In the examples that follow, each entry is paired with its recorded fold change.
[[record]]
compound = "CCN=C1N[C@@H]2C(O)C(O)C(CO)O[C@@H]2S1 (stereo partly drawn)"
value_reported = 0.487

[[record]]
compound = "CC(NC(=O)C(O)C(C)C)C(=O)NC1C(=O)N(C)CCc2ccccc21 (stereo not drawn)"
value_reported = 0.791


Form: compound = CCOC(=O)C(CCc1ccccc1)NC1CSC(c2cccs2)CN(CC(=O)O)C1=O (stereo not drawn) ; fold change = 0.5
